Listed here are molecules together with their documented Screen- Rabbit/No Protein.
tested on: rabbit vWF A1 domain (SEQ ID NO 6); experiment: 3-point dot blot screen, rabbit vWF A1 domain; assay type: binding; settings: rRfY aptamers; 100 nM rabbit vWF A1 domain; ratio of fraction bound with target to without
Sequence (as listed by the source): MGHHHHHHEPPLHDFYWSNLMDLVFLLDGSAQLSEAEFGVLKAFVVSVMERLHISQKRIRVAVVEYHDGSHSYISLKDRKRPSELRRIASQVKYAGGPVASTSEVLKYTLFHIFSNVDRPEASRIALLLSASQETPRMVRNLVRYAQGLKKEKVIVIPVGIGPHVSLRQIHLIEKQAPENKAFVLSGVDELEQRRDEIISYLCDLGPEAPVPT
Oligonucleotides are written 5' to 3', each unit as a sugar letter and its base; * is a phosphorothioate linkage, no mark a phosphodiester; rarer units and linkages stand in square brackets, end groups in braces. Plain capitals give the bases only. r = 2'-OH (RNA); f = 2'-fluoro
Kindly provide the number alone.

AMX198.C10: rRfY aptamer clone (nucleic acid) rGrGrArGfCrGfCrAfCfUfCrArGfCfCrAfCfUrGrGfUfCfCfUfUrArGfCfUrArGfUfUrGfUrAfCfUrArGfCrGrAfCrGfCrGfUfUfCrArGrGfUrGrGfUfUfUfCrGrAfCfCfUfCfUfCfUrGfCfUrArGfC :: 3.39
AMX198.E5: rRfY aptamer clone (nucleic acid) rGrGrArGfCrGfCrAfCfUfCrArGfCfCrAfCfUfUfCrGrAfCfUfUfUfCrAfUrGfUfCfUrGrArArGfUfCfCfCfUrGfCrArGfUrGfCrGrArGrArGrAfCrGfUfUfUfCrGrAfCfCfUfCfUfCfUrGfCfUrArGfC :: 1.56
AMX201.D4: rRfY aptamer clone (nucleic acid) rGrGrArGfCrGfCrAfCfUfCrArGfCfCrAfCfUrGrGrGrGfCfUrGrAfUfCfUfCrGfCrAfCrGrAfUrArGfUfUfCrGfUrGfUfCrArArGrGrAfUrGfCrGfUfUfUfUfCrGrAfCfCfUfCfUfCfUrGfCfUrArGfC :: 2.46
AMX201.C8: rRfY aptamer clone (nucleic acid) rGrGrArGfCrGfCrAfCfUfCrArGfCfCrAfCfCfCfUfCrGfCrArArGfCrAfUfUfUfUrArArGrArAfUrGrAfCfUfUrGfUrGfCfCrGfCfUrGrGfCfUrGfUfUfUfUfCrGrAfCfCfUfCfUfCfUrGfCfUrArGfC :: 1.50

Using the record for AMX201.B11: rRfY aptamer clone (nucleic acid) rGrGrArGfCrGfCrAfCfUfCrArGfCfCrAfCrAfCfCrGrArGrGfCfUrGrGrAfUrAfUfCfUrAfCrGrArGrArGrGrArArGfUrGfCfUrGfCfUfUrGrArAfUfUfUfCrGrAfCfCfUfCfUfCfUrGfCfUrArGfC , report its Screen- Rabbit/No Protein.
1.52

Consider the molecule shown here: AMX201.G1: rRfY aptamer clone (nucleic acid) rGrGrArGfCrGfCrAfCfUfCrArGfCfCrAfCrGfCfUfCrGrGfUrGrGrGrGrArArAfUfUfUfUrArGfCfCfUrArAfUfUrGrGfCfUrAfCfUfUrGfUrGfCrGfUfUfUfCrGrAfCfCfUfCfUfCfUrGfCfUrArGfC What is its recorded Screen- Rabbit/No Protein?
2.20

Data request, read-out Screen- Rabbit/No Protein, for AMX201.H4: rRfY aptamer clone (nucleic acid) rGrGrArGfCrGfCrAfCfUfCrArGfCfCrAfCfUrArAfCrGrGfUfUrGrAfUfCfUfCrArGrGrAfCfUrArAfUrArGfUfCrArAfCrArArGrGrAfUrGfCrGfUfUfUfCrGrAfCfCfUfCfUfCfUrGfCfUrArGfC
1.86
